Molecular target: AtPPO1 S305L L361D V365M (SEQ ID NO.133) (Arabidopsis thaliana, UniProt P55826, S305L/V365M/Y361D)
Sequence (P55826 35-537 S305L/Y361D/V365M): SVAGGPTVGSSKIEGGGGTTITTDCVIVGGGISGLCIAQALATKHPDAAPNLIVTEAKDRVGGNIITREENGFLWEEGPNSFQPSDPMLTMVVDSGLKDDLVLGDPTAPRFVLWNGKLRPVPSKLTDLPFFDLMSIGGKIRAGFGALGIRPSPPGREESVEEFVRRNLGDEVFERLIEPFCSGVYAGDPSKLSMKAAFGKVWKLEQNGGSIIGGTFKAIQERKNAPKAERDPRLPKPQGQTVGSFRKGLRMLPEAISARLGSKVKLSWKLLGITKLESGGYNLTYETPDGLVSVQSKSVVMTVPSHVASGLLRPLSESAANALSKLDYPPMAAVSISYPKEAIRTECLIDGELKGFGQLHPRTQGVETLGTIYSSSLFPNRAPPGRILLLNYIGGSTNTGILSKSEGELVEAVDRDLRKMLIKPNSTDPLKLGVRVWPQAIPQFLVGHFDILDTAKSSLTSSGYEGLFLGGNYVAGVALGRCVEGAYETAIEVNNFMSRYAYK
Test: fluorescent Protoporphyrinogen Oxidase assay, crude extract
Assay type: biochemical
Conditions: read-out: percentage inhibition
Could you please report measured inhibition at 10 ppm for the items listed next?
The figure you give is taken to be in %; do not add the unit.

So what's the measured inhibition at 10 ppm for this one? CCOC(=O)[C@]1(C)CC(c2cc(-n3c(=O)n(C)c(=S)n(C)c3=O)c(F)cc2Cl)=NO1 [Herbicide D] 99

Same thing, different compound: CC(C)N(C)S(=O)(=O)NC(=O)c1cc(-n2c(=O)cc(C(F)(F)F)n(C)c2=O)c(F)cc1Cl [Herbicide E, saflufenacil] 76

Same thing, different compound: C#CCN1C(=O)C(F)(F)Oc2cc(F)c(-n3c(=O)n(C)c(=S)n(C)c3=O)cc21 [Herbicide B, trifludimoxazin] 100

Same thing, different compound: CCOC(=O)C1(C)CC(c2cc(-n3c(=O)cc(C(F)(F)F)n(C)c3=O)c(F)cc2Cl)=NO1 (centres unmarked) [Herbicide C] 92

Same thing, different compound: CCOC(=O)COc1ncccc1Oc1cc(-n2c(=O)cc(C(F)(F)F)n(C)c2=O)c(F)cc1Cl [Herbicide A, epyrifenacil] 84

----------
Target: AtPPO1 S305L Y426V (SEQ ID NO.125) (Arabidopsis thaliana, UniProt P55826, S305L/Y426V)
Construct: made in house; host or cells: E. coli BL21 (DE3) hemG, crude extract
Sequence (P55826 35-537 S305L/Y426V): as the sequence (P55826 35-537 S305L/Y361D/V365M) above, with D327Y, M331V, Y392V counted along it
Experiment: fluorescent Protoporphyrinogen Oxidase assay, crude extract
Type: biochemical
Settings: read-out: percentage inhibition
observedProperty: inhibition at 1 ppm (%)
The figure you give is taken to be in %; do not add the unit.

So what's the measured inhibition at 1 ppm for this one? CCOC(=O)COc1ncccc1Oc1cc(-n2c(=O)cc(C(F)(F)F)n(C)c2=O)c(F)cc1Cl [Herbicide A, epyrifenacil] 11

Same thing, different molecule: CCOC(=O)C1(C)CC(c2cc(-n3c(=O)cc(C(F)(F)F)n(C)c3=O)c(F)cc2Cl)=NO1 (centres unmarked) [Herbicide C] 31

Same thing, different molecule: CCOC(=O)[C@]1(C)CC(c2cc(-n3c(=O)n(C)c(=S)n(C)c3=O)c(F)cc2Cl)=NO1 [Herbicide D] 10

Same thing, different molecule: C#CCN1C(=O)C(F)(F)Oc2cc(F)c(-n3c(=O)n(C)c(=S)n(C)c3=O)cc21 [Herbicide B, trifludimoxazin] 99

Same thing, different molecule: CC(C)N(C)S(=O)(=O)NC(=O)c1cc(-n2c(=O)cc(C(F)(F)F)n(C)c2=O)c(F)cc1Cl [Herbicide E, saflufenacil] 2

----------
Molecular target: AtPPO1 Y426M T461Q L479M (SEQ ID NO.132) (Arabidopsis thaliana, UniProt P55826, L479M/T461Q/Y426M)
Construct: made in house; host or cells: E. coli BL21 (DE3) hemG, crude extract
Sequence (P55826 35-537 Y426M/T461Q/L479M): as the sequence (P55826 35-537 S305L/Y361D/V365M) above, with L271S, D327Y, M331V, Y392M, T427Q, L445M counted along it
Assay: fluorescent Protoporphyrinogen Oxidase assay, crude extract
Assay type: biochemical
Conditions: read-out: percentage inhibition
observedProperty: inhibition at 0.1 ppm (%)
The figure you give is taken to be in %; do not add the unit.

So what's the measured inhibition at 0.1 ppm for this one? CCOC(=O)[C@]1(C)CC(c2cc(-n3c(=O)n(C)c(=S)n(C)c3=O)c(F)cc2Cl)=NO1 [Herbicide D] 58

Same thing, different compound: C#CCN1C(=O)C(F)(F)Oc2cc(F)c(-n3c(=O)n(C)c(=S)n(C)c3=O)cc21 [Herbicide B, trifludimoxazin] 100

Same thing, different compound: CC(C)N(C)S(=O)(=O)NC(=O)c1cc(-n2c(=O)cc(C(F)(F)F)n(C)c2=O)c(F)cc1Cl [Herbicide E, saflufenacil] 0

Same thing, different compound: CCOC(=O)C1(C)CC(c2cc(-n3c(=O)cc(C(F)(F)F)n(C)c3=O)c(F)cc2Cl)=NO1 (centres unmarked) [Herbicide C] 26

Same thing, different compound: CCOC(=O)COc1ncccc1Oc1cc(-n2c(=O)cc(C(F)(F)F)n(C)c2=O)c(F)cc1Cl [Herbicide A, epyrifenacil] 10

----------
Biological target: AtPPO1 V365L Y426V L479N (SEQ ID NO.126) (Arabidopsis thaliana, UniProt P55826, L479N/V365L/Y426V)
Construct: made in house; host or cells: E. coli BL21 (DE3) hemG, crude extract
Sequence (P55826 35-537 V365L/Y426V/L479N): as the sequence (P55826 35-537 S305L/Y361D/V365M) above, with L271S, D327Y, M331L, Y392V, L445N counted along it
Assay: fluorescent Protoporphyrinogen Oxidase assay, crude extract
Type: biochemical
Settings: read-out: percentage inhibition
observedProperty: inhibition at 100 ppm

So what's the measured inhibition at 100 ppm for this one? CCOC(=O)[C@]1(C)CC(c2cc(-n3c(=O)n(C)c(=S)n(C)c3=O)c(F)cc2Cl)=NO1 [Herbicide D] 98%

Same thing, different compound: CCOC(=O)C1(C)CC(c2cc(-n3c(=O)cc(C(F)(F)F)n(C)c3=O)c(F)cc2Cl)=NO1 (centres unmarked) [Herbicide C] 93%

Same thing, different compound: CC(C)N(C)S(=O)(=O)NC(=O)c1cc(-n2c(=O)cc(C(F)(F)F)n(C)c2=O)c(F)cc1Cl [Herbicide E, saflufenacil] 94%

Same thing, different compound: CCOC(=O)COc1ncccc1Oc1cc(-n2c(=O)cc(C(F)(F)F)n(C)c2=O)c(F)cc1Cl [Herbicide A, epyrifenacil] 90%

Same thing, different compound: C#CCN1C(=O)C(F)(F)Oc2cc(F)c(-n3c(=O)n(C)c(=S)n(C)c3=O)cc21 [Herbicide B, trifludimoxazin] 100%

----------
Could you please report measured log10 IC50 for the items listed next?
Target: His-TEV-AtPP01 ΔcTP L479M (SEQ ID NO: 371) (Arabidopsis thaliana, UniProt P55826, L479M)
Construct: with cTPs removed; made in house; host or cells: E. coli BL21 (DE3), His GraviTrap, partially purified
Sequence (P55826 with tags, fused parts or gaps L479M): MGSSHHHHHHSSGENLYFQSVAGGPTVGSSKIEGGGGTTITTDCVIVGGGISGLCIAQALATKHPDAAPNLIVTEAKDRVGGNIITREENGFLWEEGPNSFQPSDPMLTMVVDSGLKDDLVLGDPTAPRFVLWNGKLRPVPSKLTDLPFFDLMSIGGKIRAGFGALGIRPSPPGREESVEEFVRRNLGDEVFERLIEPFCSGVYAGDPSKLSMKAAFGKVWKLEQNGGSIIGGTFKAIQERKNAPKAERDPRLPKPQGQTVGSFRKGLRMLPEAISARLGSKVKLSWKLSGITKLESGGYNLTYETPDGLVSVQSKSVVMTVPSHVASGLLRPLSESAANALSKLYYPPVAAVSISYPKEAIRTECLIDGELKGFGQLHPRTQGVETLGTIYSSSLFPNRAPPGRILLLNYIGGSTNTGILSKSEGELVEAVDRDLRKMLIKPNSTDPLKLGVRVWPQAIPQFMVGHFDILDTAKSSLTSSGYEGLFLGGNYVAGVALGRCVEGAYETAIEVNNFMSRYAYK
Assay: PPO fluorescence IC50 assay, partially purified enzyme
Assay type: biochemical
Method: A pET24 plasmid containing a DNA sequence encoding variants of AtPPO1 derived from Arabidopsis thaliana with cTPs removed and both a 6×His tag and TEV protease cleavage tag added at the N-terminus, codon-optimised for expression in E. coli, and under control of a T7 promoter, was synthesised by Twist Bioscience. […] Protein concentration was measured and calculated using the absorbance at 280 nm. Extracts were diluted 1 in 4 and 10 uL was analysed by SDS PAGE. […]
A value of 2 here means IC50 of 100 in nM, since values are log10.

So what's the measured log10 IC50 for this one? C=CCOC(=O)C(C)(C)OC(=O)c1cc(-n2c(=O)cc(C(F)(F)F)n(C)c2=O)ccc1Cl [Butafenacil, butafenacil] -0.15

Same thing, different compound: CS(=O)(=O)NC(=O)c1cc(Oc2ccc(C(F)(F)F)cc2Cl)ccc1[N+](=O)[O-] [Fomesafen, fomesafen] 0.08

Same thing, different compound: CCOC(=O)[C@]1(C)CC(c2cc(-n3c(=O)n(C)c(=S)n(C)c3=O)c(F)cc2Cl)=NO1 [Herbicide D] -0.22

Same thing, different compound: C#CCOc1cc(-n2nc3n(c2=O)CCCC3)c(Cl)cc1Cl [Azafenadin] -0.15

Same thing, different compound: CCOC(=O)C1(C)CC(c2cc(-n3c(=O)cc(C(F)(F)F)n(C)c3=O)c(F)cc2Cl)=NO1 (stereo not shown) [Herbicide C] -0.10

Same thing, different compound: CC(C)N(C)S(=O)(=O)NC(=O)c1cc(-n2c(=O)cc(C(F)(F)F)n(C)c2=O)c(F)cc1Cl [Herbicide E, saflufenacil] 0.38

Same thing, different compound: CC(C)Oc1cc(-n2nc(C(C)(C)C)oc2=O)c(Cl)cc1Cl [Oxadiazaon] 1.05

----------
Could you please report measured inhibition at 10 ppm for the items listed next?
Target: AtPPO1 Y361D V365L (SEQ ID NO.135) (Arabidopsis thaliana, UniProt P55826, V365L/Y361D)
Construct: made in house; host or cells: E. coli BL21 (DE3) hemG, crude extract
Sequence (P55826 35-537 Y361D/V365L): as the sequence (P55826 35-537 S305L/Y361D/V365M) above, with L271S, M331L counted along it
Experiment: fluorescent Protoporphyrinogen Oxidase assay, crude extract
Format: biochemical
Settings: read-out: percentage inhibition
The figure you give is taken to be in %; do not add the unit.

So what's the measured inhibition at 10 ppm for this one? CCOC(=O)[C@]1(C)CC(c2cc(-n3c(=O)n(C)c(=S)n(C)c3=O)c(F)cc2Cl)=NO1 [Herbicide D] 93

Same thing, different compound: CCOC(=O)C1(C)CC(c2cc(-n3c(=O)cc(C(F)(F)F)n(C)c3=O)c(F)cc2Cl)=NO1 (centres unmarked) [Herbicide C] 94

Same thing, different compound: CCOC(=O)COc1ncccc1Oc1cc(-n2c(=O)cc(C(F)(F)F)n(C)c2=O)c(F)cc1Cl [Herbicide A, epyrifenacil] 99

Same thing, different compound: C#CCN1C(=O)C(F)(F)Oc2cc(F)c(-n3c(=O)n(C)c(=S)n(C)c3=O)cc21 [Herbicide B, trifludimoxazin] 100

Same thing, different compound: CC(C)N(C)S(=O)(=O)NC(=O)c1cc(-n2c(=O)cc(C(F)(F)F)n(C)c2=O)c(F)cc1Cl [Herbicide E, saflufenacil] 83
